experiment: Study of blood-brain ratio after single oral dose; type: in vivo; details: male, SD, rat, brain, po, 50 mg/kg, male SD rats, PO 50 mg/kg single dose, 0.5 hr, mean of 3 rats; read-out: Brain Concentration (ng/g) Mean
measured-attribute: concentration at 0.5 h (ng/g)
Kindly provide the numeric value in ng/g only, without the unit symbol.

Given O=C(Nc1ccc(OC(F)(F)Cl)cc1)c1cnc(N2CC[C@@H](F)C2)c(-c2cnccn2)c1 [Compound A] , state its recorded concentration at 0.5 h. 366

###

assay: Phase I clinical trial: pharmacokinetics; format: in vivo, humans; details: human, in vivo; CML patients; oral; read-out: terminal half-life
measured-attribute: half-life

Given O=C(Nc1ccc(OC(F)(F)Cl)cc1)c1cnc(N2CC[C@@H](F)C2)c(-c2cnccn2)c1 , state its recorded half-life. > 100 h

###

experiment: Study of blood-brain ratio after single oral dose; assay type: in vivo; conditions: male, SD, rat, brain, po, 50 mg/kg, male SD rats, PO 50 mg/kg single dose, 0.5 hr, individual rat; read-out: Brain Concentration (ng/g) Concentration
measured-attribute: concentration at 0.5 h (ng/g)
Kindly provide the numeric value in ng/g only, without the unit symbol.

Given O=C(Nc1ccc(OC(F)(F)Cl)cc1)c1cnc(N2CC[C@@H](F)C2)c(-c2cnccn2)c1 [Compound A] , state its recorded concentration at 0.5 h. 415

###

tested on: Ba/F3 BCR-ABL1 E255K; assay: Cell growth inhibitory activity test (CellTiter-Glo); format: cell-based; details: Mus musculus, BaF3, 72 hours
measured-attribute: IC50 (nM)
Kindly provide the numeric value in nM only, without the unit symbol.

Given O=C(Nc1ccc(OC(F)(F)Cl)cc1)c1cnc(N2CC[C@@H](F)C2)c(-c2cnccn2)c1 , state its recorded IC50. 1.01

###

test system: Ba/F3 parental cells; assay: Cell growth inhibitory activity test (CellTiter-Glo); assay type: cell-based; conditions: Mus musculus, BaF3, 72 hours
measured-attribute: pIC50
Give only the number. pIC50 is defined as minus log10 of concentration in molar units.

Given O=C(Nc1ccc(OC(F)(F)Cl)cc1)c1cnc(N2CC[C@@H](F)C2)c(-c2cnccn2)c1 , state its recorded pIC50. 5.00

###

Assay: Study of blood-brain ratio after single oral dose
Type: in vivo
Settings: male, SD, rat, brain/plasma, po, 50 mg/kg, male SD rats, PO 50 mg/kg single dose, 2 hr, individual rat
Method: A total of 15 male SD rats (3 per time point) were administered a single oral dose of Compound A via oral gavage at 50 mg/kg, with the vehicle being 0.5% sodium carboxymethyl cellulose (CMC-Na). The animals were not fasted. […] Brain tissue samples were rinsed with saline, dried with filter paper, blood vessels were removed, and the weight was weighed and recorded. […] PK parameters were calculated using the non-compartmental model in WinNonlin and the compound concentrations in each matrix.
measured-attribute: Kp at 2 h
API note: the answer field is a bare number with no unit suffix.

Given O=C(Nc1ccc(OC(F)(F)Cl)cc1)c1cnc(N2CC[C@@H](F)C2)c(-c2cnccn2)c1 [Compound A] , state its recorded Kp at 2 h. 0.439
